Would you kindly list Rate +MK571 (conjugate production) for each of these molecules?
system: Caco-2/TC7 cell lysate; experiment: Flavonol conjugate production by Caco-2/TC7 cell free lysate, effect of MK571; format: biochemical, human; details: aglycone 40 μM, MK571 50 μM; slope (standard error of the slope)

Q) Which Rate +MK571 (conjugate production) is reported for this molecule? O=C(O)[C@H]1O[C@@H](Oc2cc(O)c3c(=O)c(O)c(-c4ccccc4)oc3c2)[C@H](O)[C@@H](O)[C@@H]1O [G-7-GlcA, galangin-7-glucuronide]
A) 19.8 (±1.63) pmol/h

Q) Another molecule: "O=C(O)[C@H]1O[C@@H](Oc2cc(-c3oc4cc(O)cc(O)c4c(=O)c3O)ccc2O)[C@H](O)[C@@H](O)[C@@H]1O"
A) 2.62 (±0.24) pmol/h

Q) Please answer likewise for O=C(O)[C@H]1O[C@@H](Oc2c(-c3ccc(O)cc3)oc3cc(O)cc(O)c3c2=O)[C@H](O)[C@@H](O)[C@@H]1O [K-3-GlcA, kaempferol-3-glucuronide]
A) 1.40 (±0.08) pmol/h

Q) Field entry: "O=C(O)[C@H]1O[C@@H](Oc2ccc(-c3oc4cc(O)cc(O)c4c(=O)c3O)cc2O)[C@H](O)[C@@H](O)[C@@H]1O"
A) 0.28 (±0.03) pmol/h

Q) Try this molecule next: O=C(O)[C@H]1O[C@@H](Oc2c(-c3ccccc3)oc3cc(O)cc(O)c3c2=O)[C@H](O)[C@@H](O)[C@@H]1O [G-3-GlcA, galangin-3-glucuronide]
A) 25.3 (±2.30) pmol/h

* * *

tested on: Caco-2/TC7 cells; test: Flavonol metabolism and transport experiments on Caco-2/TC7 transwell monolayers, effect of MK571; assay type: cell-based, human; conditions: apical to basolateral ratio of efflux of the conjugate, 60 min, 12-well transwells
resultType: Ap:Bl ratio (No MK571)

Q) Dear colleague, I am looking for the recorded Ap:Bl ratio (No MK571) of the following compound: O=C(O)[C@H]1O[C@@H](Oc2ccc(-c3oc4cc(O)cc(O)c4c(=O)c3O)cc2)[C@H](O)[C@@H](O)[C@@H]1O [K-4′-GlcA, kaempferol-4′-glucuronide]
A) 0.26 (±0.066)

Q) Query O=C(O)[C@H]1O[C@@H](Oc2cc(-c3oc4cc(O)cc(O)c4c(=O)c3O)ccc2O)[C@H](O)[C@@H](O)[C@@H]1O [Q-3′-GlcA] next
A) 100% apical

Q) Would you kindly repeat that for O=C(O)[C@H]1O[C@@H](Oc2ccc(-c3oc4cc(O)cc(O)c4c(=O)c3O)cc2O)[C@H](O)[C@@H](O)[C@@H]1O [Q-4′-GlcA] ?
A) 0.23 (±0.034)

Q) Next: O=C(O)[C@H]1O[C@@H](Oc2c(-c3ccccc3)oc3cc(O)cc(O)c3c2=O)[C@H](O)[C@@H](O)[C@@H]1O [G-3-GlcA, galangin-3-glucuronide]
A) 0.24 (±0.033)

Q) Now the compound O=C(O)C1OC(Oc2cc(O)cc3oc(-c4ccccc4)c(O)c(=O)c23)C(O)C(O)C1O (stereo not shown) [G-5-GlcA]
A) 0.19 (±0.020)

Q) O=C(O)[C@H]1O[C@@H](Oc2cc(O)c3c(=O)c(O)c(-c4ccc(O)cc4)oc3c2)[C@H](O)[C@@H](O)[C@@H]1O [K-7-GlcA, kaempferol-7-glucuronide] ?
A) 0.28 (±0.044)

Q) Follow-up entry: O=C(O)[C@H]1O[C@@H](Oc2cc(O)c3c(=O)c(O)c(-c4ccccc4)oc3c2)[C@H](O)[C@@H](O)[C@@H]1O [G-7-GlcA, galangin-7-glucuronide]
A) 0.54 (±0.058)
